# tested_on: human PPARα (Homo sapiens)
# Construct: The coding region of a human PPARα cDNA was inserted downstream of the CMV promoter; expressed in transfected cells; host or cells: Cos-7 cells, transient transfection (pcDNA3.1(−)-PPARα, pRSV-RXRα, 3xPPRE-TK-luc reporter, pRL-TK)
# Sequence (Q07869 1-468): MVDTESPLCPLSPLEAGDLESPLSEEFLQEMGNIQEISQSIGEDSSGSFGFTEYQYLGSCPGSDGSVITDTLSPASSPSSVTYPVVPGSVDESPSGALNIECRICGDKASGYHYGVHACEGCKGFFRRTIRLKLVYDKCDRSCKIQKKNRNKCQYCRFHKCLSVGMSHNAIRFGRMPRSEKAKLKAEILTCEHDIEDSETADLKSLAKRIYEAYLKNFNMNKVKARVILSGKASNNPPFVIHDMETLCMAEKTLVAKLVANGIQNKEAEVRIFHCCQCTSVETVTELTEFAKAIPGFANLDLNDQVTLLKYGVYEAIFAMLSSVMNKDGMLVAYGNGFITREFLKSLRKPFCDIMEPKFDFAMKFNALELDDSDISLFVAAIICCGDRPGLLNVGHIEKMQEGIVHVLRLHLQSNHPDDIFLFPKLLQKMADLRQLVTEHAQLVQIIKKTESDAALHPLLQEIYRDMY
# Sequence (P19793 1-462 partner): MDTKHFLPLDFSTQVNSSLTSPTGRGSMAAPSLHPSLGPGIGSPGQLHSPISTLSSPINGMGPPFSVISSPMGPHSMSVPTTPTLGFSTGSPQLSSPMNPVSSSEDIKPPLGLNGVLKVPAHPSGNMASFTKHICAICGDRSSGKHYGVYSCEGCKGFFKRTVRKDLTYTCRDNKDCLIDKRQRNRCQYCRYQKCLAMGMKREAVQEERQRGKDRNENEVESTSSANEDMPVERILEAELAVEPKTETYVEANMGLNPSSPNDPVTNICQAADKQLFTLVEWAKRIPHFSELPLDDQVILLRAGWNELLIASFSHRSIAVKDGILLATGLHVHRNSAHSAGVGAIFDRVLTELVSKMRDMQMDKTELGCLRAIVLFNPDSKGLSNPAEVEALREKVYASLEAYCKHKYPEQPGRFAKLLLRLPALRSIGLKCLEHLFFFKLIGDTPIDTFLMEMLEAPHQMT
# assay_comment: PPARα reporter gene assay (firefly luciferase, transiently transfected Cos-7 cells)
# Assay type: cell-based
# recorded_conditions: pass = activation greater than oleic acid at 100 μM, commonly >1.57 times vehicle control; 24 h treatment
metric_name: Pass at (lowest tested administration level at which the test material passed)

Completed entries (count: 2):
CCCC/C=C\CCCCCCCCCCCC(=O)O [cis-13-octadecenoic acid] = 50 μm
CCCCC/C=C\C/C=C\CCCCCCCC(=O)O = 10 μm

// input: 6 compounds below; output: Pass at (lowest tested administration level at which the test material passed) for each
1. CCCCC/C=C/CCCCCCCCCCC(=O)O [trans-12-octadecenoic acid]
2. CCC=CCC=CC/C=C\CCCCCCCCCC(=O)O [cis-11,14,17 eicosatrienoic acid]
3. CC\C=C/C=C/C=C/C=C\CCCCCCCC(=O)O [cis parinaric acid, cis-parinaric acid]
4. CCCCCC/C=C/CCCCCCCCCC(=O)O [trans vaccenic acid]
5. CCCCCC/C=C/C=C\CCCCCCCC(=O)O [CLA (c9, t11), cis-9-trans-11 conjugated linoleic acid]
6. CCCC/C=C/CCCCCCCCCCCC(=O)O [Trans-13-octadecenoic acid]

1: 100 μm; 2: 100 μm; 3: 10 μm; 4: 10 μm; 5: 10 μm; 6: 10 μm

Recorded Pass at (lowest tested administration level at which the test material passed) of `CCCCCC[C@@H](O)C/C=C\CCCCCCCC(=O)O` , please.
10 μm

---

# tested_on: human PPARα (Homo sapiens)
# Construct: The coding region of a human PPARα cDNA was inserted downstream of the CMV promoter; expressed in transfected cells; host or cells: Cos-7 cells, transient transfection (pcDNA3.1(−)-PPARα, pRSV-RXRα, 3xPPRE-TK-luc reporter, pRL-TK)
# assay_comment: PPARα reporter gene assay (firefly luciferase, transiently transfected Cos-7 cells)
# Type: cell-based
# recorded_conditions: pass = activation greater than oleic acid at 100 μM, commonly >1.57 times vehicle control; 24 h treatment
Hi there, I'd appreciate the recorded Pass at (lowest tested administration level at which the test material passed) for every entry that follows.
Answer by giving the amount and then stating its unit.

Completed entries (count: 3):
CCCCCCCCCCC/C=C/CCCCC(=O)O = 50 μm
CCCCCCCCC#CCCCCCCCC(=O)O = 10 μm
CCCCC/C=C\C=C\CCCCCCCCC(=O)O [CLA (t10, c12), trans-10-cis-12 conjugated linoleic acid] = 50 μm

// input: 5 compounds below; output: Pass at (lowest tested administration level at which the test material passed) for each
1. CCCCCCC(O)CCCCCCCCCCC(=O)O (stereo not drawn) [12-hydroxystearic acid]
2. CCCCCC/C=C/C=C/CCCCCCCC(=O)O
3. CCC=CCC=CCC=CCC=CCC=CC/C=C\CCC(=O)O [cis-4,7,10,13,16,19 docosahexenoic acid]
4. CCCCCC=CC/C=C\CCCCCCCCCCCC(=O)O [cis 13,16 docosadienoic acid]
5. CCCCCC=CCC=CC/C=C\CCCCCCC(=O)O [cis-8,11,14 eicosatrienoic acid]

10 μm
50 μm
10 μm
10 μm
100 μm

Recorded Pass at (lowest tested administration level at which the test material passed) of `CCCCC/C=C/C/C=C/CCCCCCCC(=O)O` , please.
25 μm
